Tested on: REC-1
test: Antiproliferative activity, CCK-8, REC-1
Format: cell-based
test-parameters: REC-1, Human mantle cell lymphoma; read-out: Cytotoxicity (IC50 μM)
measurement-type: IC50 (µM)
Field format: number, assumed µM, no unit text.

Tell me measured IC50 for `C[C@@H](c1ccc(C(=O)Nc2ccc(F)cc2N)cc1)n1nc(-c2ccc(CN(C)C)cc2)ccc1=O` please.
0.381

###

system-under-test: HDAC2 (Homo sapiens (Human), UniProt Q92769)
Sequence (Q92769 whole entry): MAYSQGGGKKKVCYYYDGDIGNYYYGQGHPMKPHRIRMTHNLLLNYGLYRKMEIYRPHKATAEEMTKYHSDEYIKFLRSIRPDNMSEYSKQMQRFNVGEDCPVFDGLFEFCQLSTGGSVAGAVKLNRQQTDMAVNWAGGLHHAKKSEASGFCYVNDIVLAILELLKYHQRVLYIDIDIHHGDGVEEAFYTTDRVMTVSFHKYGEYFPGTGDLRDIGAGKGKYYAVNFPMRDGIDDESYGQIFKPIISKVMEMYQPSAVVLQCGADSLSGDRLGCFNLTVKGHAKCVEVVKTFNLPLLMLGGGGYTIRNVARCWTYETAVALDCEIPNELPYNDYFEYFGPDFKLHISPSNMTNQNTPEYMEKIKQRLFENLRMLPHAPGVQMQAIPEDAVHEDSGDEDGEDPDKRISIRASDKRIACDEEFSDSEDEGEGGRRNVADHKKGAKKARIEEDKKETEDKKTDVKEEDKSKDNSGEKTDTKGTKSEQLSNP
measurement-type: pIC50
Lab note: report pIC50 as minus log10 of the concentration in molar units, number only.

Using known records, supply pIC50 for C[C@H](c1ccc(C(=O)Nc2ccc(F)cc2N)cc1)n1nc(-c2ccc(CN(C)C)cc2)ccc1=O [I-1 (R configuration), reference compound]
6.49

###

System: MDA-MB-453
test: Antiproliferative activity, CCK-8, MDA-MB-453
Assay type: cell-based
test-parameters: MDA-MB-453, Breast cancer; read-out: Cytotoxicity (IC50 μM)
measurement-type: IC50 (µM)
Provide the reading as a plain figure in µM.

Kindly indicate its recorded IC50. Item: `C[C@@H](c1ccc(C(=O)Nc2ccc(F)cc2N)cc1)n1nc(-c2ccc(CN(C)C)cc2)ccc1=O`
0.498

###

Test system: VMM5A
test: Antiproliferative activity, CCK-8, VMM5A
Format: cell-based
test-parameters: Melanoma, read-out: Cytotoxicity (IC50 μM)
measurement-type: IC50 (µM)
# value in µM; strip the unit string

Report value only: IC50, VMM5A, `C[C@@H](c1ccc(C(=O)Nc2ccc(F)cc2N)cc1)n1nc(-c2ccc(CN(C)C)cc2)ccc1=O`
0.856

###

Test system: A2058
test: Antiproliferative activity, CCK-8, A2058
Type: cell-based
test-parameters: A2058, Melanoma; read-out: Cytotoxicity (IC50 μM)
measurement-type: IC50
Please give the number followed by its unit.

State, in one line, measured IC50 of `C[C@@H](c1ccc(C(=O)Nc2ccc(F)cc2N)cc1)n1nc(-c2ccc(CN(C)C)cc2)ccc1=O`
0.562 µM

###

Tested on: U-2932
test: Antiproliferative activity, CCK-8, U-2932
Format: cell-based
test-parameters: U-2932, Diffuse large B-cell lymphoma; read-out: Cytotoxicity (IC50 μM)
measurement-type: IC50 (µM)
Write the value in µM as a bare number.

Report value only: IC50, U-2932, `C[C@@H](c1ccc(C(=O)Nc2ccc(F)cc2N)cc1)n1nc(-c2ccc(CN(C)C)cc2)ccc1=O`
0.214

###

Test system: EoL-1
test: Antiproliferative activity, CCK-8, EoL-1
Type: cell-based
test-parameters: EoL-1, Chronic eosinophilic leukemia; read-out: Cytotoxicity (IC50 μM)
Procedure: The tumor cells used were purchased from commercial cell banks (HCT116 purchased from ATCC, SKM 1 purchased from JCRB). The growth inhibition of cells was detected using the CCK-8 method. The specific steps were as follows. […] After the treatment, 10 μL of CCK-8 was added to each well and the plate was incubated in an incubator for 2-4 hours, and the optical density (OD value) at a wavelength of 450 nm was measured using a SpectraMax 190 microplate reader. […]
measurement-type: IC50 (µM)
Note: unit µM is implicit; provide only the numeric part.

Give a short answer stating reported IC50 for `C[C@@H](c1ccc(C(=O)Nc2ccc(F)cc2N)cc1)n1nc(-c2ccc(CN(C)C)cc2)ccc1=O` .
0.158
